Tested on: 435261-313-R-J1-PDC tumor spheroid viability
assay-name: Anticancer human tumor 435261-313-R-J1-PDC patient-derived colon adenocarcinoma cell line growth inhibition [PI3K]
details: second compound 1 µM; first compound 0.001 µM; stronger effect = lower value; spheroids with HUVEC and MSC
In this section, each of the compounds is paired with its reported viability, T/C.
quantity-kind: viability, T/C

>  <compound>
Cn1ncnc1[C@H]1c2n[nH]c(=O)c3cc(F)cc(c23)N[C@@H]1c1ccc(F)cc1 + CC(Nc1ccc2c(c1)OCCn1cc(N3C(=O)OCC3C(F)F)nc1-2)C(N)=O

>  <target-desc>
435261-313-R-J1-PDC tumor spheroid viability

>  <quantity-kind>
viability, T/C

>  <result>
17.5%

$$$$
>  <compound>
CC(=O)c1c(C)c2cnc(Nc3ccc(N4CCNCC4)cn3)nc2n(C2CCCC2)c1=O + Cc1nc(NC(=O)N2CCCC2C(N)=O)sc1-c1ccnc(C(C)(C)C(F)(F)F)c1

>  <target-desc>
435261-313-R-J1-PDC tumor spheroid viability

>  <quantity-kind>
viability, T/C

>  <result>
27.5%

$$$$
>  <compound>
CC(C)n1nc(-c2ccc3oc(N)nc3c2)c2c(N)ncnc21 + Cc1nc(NC(=O)N2CCCC2C(N)=O)sc1-c1ccnc(C(C)(C)C(F)(F)F)c1

>  <target-desc>
435261-313-R-J1-PDC tumor spheroid viability

>  <quantity-kind>
viability, T/C

>  <result>
30.5%

$$$$

###

System: 435261-313-R-J1-PDC tumor spheroid viability
assay-name: Anticancer human tumor 435261-313-R-J1-PDC cell line growth inhibition [PI3K];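 further: spheroids exposed to compounds for 7 days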
details: second compound 0.1 µM; first compound 0.316 µM; stronger effect = lower value; spheroids with HUVEC and MSC
quantity-kind: viability, T/C

>  <molecule>
C#Cc1c(F)ccc2cc(O)cc(-c3ncc4c(N5CC6CCC(C5)N6)nc(OCC56CCCN5CC(F)C6)nc4c3F)c12 (stereo unspecified) + CC(Nc1ncnc2nc[nH]c12)c1cc2cccc(Cl)c2c(=O)n1-c1ccccc1

>  <target-desc>
435261-313-R-J1-PDC tumor spheroid viability

>  <result>
72.2%

$$$$
>  <molecule>
CCN1CCN(Cc2ccc(Nc3ncc(F)c(-c4cc(F)c5nc(C)n(C(C)C)c5c4)n3)nc2)CC1 + CC(Nc1ccc2c(c1)OCCn1cc(N3C(=O)OCC3C(F)F)nc1-2)C(N)=O

>  <target-desc>
435261-313-R-J1-PDC tumor spheroid viability

>  <result>
19.8%

$$$$
>  <molecule>
CC1(C)CCC(CN2CCN(c3ccc(C(=O)NS(=O)(=O)c4ccc(NCC5CCOCC5)c([N+](=O)[O-])c4)c(Oc4cnc5[nH]ccc5c4)c3)CC2)=C(c2ccc(Cl)cc2)C1 + COc1c(OCCCN2CCOCC2)ccc2c3n(c(=NC(=O)c4cnc(N)nc4)nc12)CCN3

>  <target-desc>
435261-313-R-J1-PDC tumor spheroid viability

>  <result>
14.9%

$$$$
>  <molecule>
Cn1ncc(Cl)c1-c1cc(C(=O)NC(CN)Cc2cccc(F)c2)sc1Cl (stereo unspecified) + Cc1nc(NC(=O)N2CCCC2C(N)=O)sc1-c1ccnc(C(C)(C)C(F)(F)F)c1

>  <target-desc>
435261-313-R-J1-PDC tumor spheroid viability

>  <result>
51.6%

$$$$
>  <molecule>
Cn1nccc1Nc1nccc(-c2ccn(C(CO)c3ccc(Cl)c(F)c3)c(=O)c2)n1 (stereo unspecified) + Cc1nc(NC(=O)N2CCCC2C(N)=O)sc1-c1ccnc(C(C)(C)C(F)(F)F)c1

>  <target-desc>
435261-313-R-J1-PDC tumor spheroid viability

>  <result>
32.4%

$$$$
>  <molecule>
Cn1nccc1Nc1nccc(-c2ccn(C(CO)c3ccc(Cl)c(F)c3)c(=O)c2)n1 (stereo unspecified) + COc1c(OCCCN2CCOCC2)ccc2c3n(c(=NC(=O)c4cnc(N)nc4)nc12)CCN3

>  <target-desc>
435261-313-R-J1-PDC tumor spheroid viability

>  <result>
10.8%

$$$$
>  <molecule>
CC(C)NCC(C(=O)N1CCN(c2ncnc3c2C(C)CC3O)CC1)c1ccc(Cl)cc1 (stereo unspecified) + COc1c(OCCCN2CCOCC2)ccc2c3n(c(=NC(=O)c4cnc(N)nc4)nc12)CCN3

>  <target-desc>
435261-313-R-J1-PDC tumor spheroid viability

>  <result>
18.2%

$$$$
>  <molecule>
CCCS(=O)(=O)Nc1ccc(F)c(C(=O)c2c[nH]c3ncc(-c4ccc(Cl)cc4)cc23)c1F + Cc1nc(NC(=O)N2CCCC2C(N)=O)sc1-c1ccnc(C(C)(C)C(F)(F)F)c1

>  <target-desc>
435261-313-R-J1-PDC tumor spheroid viability

>  <result>
104%

$$$$
>  <molecule>
CCN1CCN(Cc2ccc(Nc3ncc(F)c(-c4cc(F)c5nc(C)n(C(C)C)c5c4)n3)nc2)CC1 + COc1c(OCCCN2CCOCC2)ccc2c3n(c(=NC(=O)c4cnc(N)nc4)nc12)CCN3

>  <target-desc>
435261-313-R-J1-PDC tumor spheroid viability

>  <result>
15.6%

$$$$
>  <molecule>
CC(Cn1ccc(-c2ccc(C#N)c(Cl)c2)n1)NC(=O)c1cc(C(C)O)[nH]n1 (stereo unspecified) + CC(Nc1ccc2c(c1)OCCn1cc(N3C(=O)OCC3C(F)F)nc1-2)C(N)=O

>  <target-desc>
435261-313-R-J1-PDC tumor spheroid viability

>  <result>
40.1%

$$$$
>  <molecule>
C#Cc1c(F)ccc2cc(O)cc(-c3ncc4c(N5CC6CCC(C5)N6)nc(OCC56CCCN5CC(F)C6)nc4c3F)c12 (stereo unspecified) + CC(Nc1ccc2c(c1)OCCn1cc(N3C(=O)OCC3C(F)F)nc1-2)C(N)=O

>  <target-desc>
435261-313-R-J1-PDC tumor spheroid viability

>  <result>
47.4%

$$$$

###

Tested on: 435261-313-R-J1-PDC tumor spheroid viability
assay-name: Anticancer human tumor 435261-313-R-J1-PDC cell line growth inhibition [PI3K];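 further: spheroids exposed to compounds for 7 days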
details: second compound 0.1 µM; first compound 1 µM; stronger effect = lower value; spheroids with HUVEC and MSC
quantity-kind: viability, T/C (%)

>  <compound>
Cn1nccc1Nc1nccc(-c2ccn(C(CO)c3ccc(Cl)c(F)c3)c(=O)c2)n1 (stereo not given) + CC(Nc1ccc2c(c1)OCCn1cc(N3C(=O)OCC3C(F)F)nc1-2)C(N)=O

>  <target-desc>
435261-313-R-J1-PDC tumor spheroid viability

>  <quantity-kind>
viability, T/C

>  <number>
11.8

$$$$
>  <compound>
CC(Cn1ccc(-c2ccc(C#N)c(Cl)c2)n1)NC(=O)c1cc(C(C)O)[nH]n1 (stereo not given) + CC(Nc1ncnc2nc[nH]c12)c1cc2cccc(Cl)c2c(=O)n1-c1ccccc1

>  <target-desc>
435261-313-R-J1-PDC tumor spheroid viability

>  <quantity-kind>
viability, T/C

>  <number>
103

$$$$
>  <compound>
CCN1CCN(Cc2ccc(Nc3ncc(F)c(-c4cc(F)c5nc(C)n(C(C)C)c5c4)n3)nc2)CC1 + CC(Nc1ccc2c(c1)OCCn1cc(N3C(=O)OCC3C(F)F)nc1-2)C(N)=O

>  <target-desc>
435261-313-R-J1-PDC tumor spheroid viability

>  <quantity-kind>
viability, T/C

>  <number>
25.3

$$$$
>  <compound>
C=CC(=O)N1CCN(c2nc(=O)n(-c3c(C)ccnc3C(C)C)c3nc(-c4c(O)cccc4F)c(F)cc23)C(C)C1 (stereo not given) + CC(Nc1ccc2c(c1)OCCn1cc(N3C(=O)OCC3C(F)F)nc1-2)C(N)=O

>  <target-desc>
435261-313-R-J1-PDC tumor spheroid viability

>  <quantity-kind>
viability, T/C

>  <number>
37.9

$$$$
>  <compound>
CC1(C)CCC(CN2CCN(c3ccc(C(=O)NS(=O)(=O)c4ccc(NCC5CCOCC5)c([N+](=O)[O-])c4)c(Oc4cnc5[nH]ccc5c4)c3)CC2)=C(c2ccc(Cl)cc2)C1 + CC(Nc1ccc2c(c1)OCCn1cc(N3C(=O)OCC3C(F)F)nc1-2)C(N)=O

>  <target-desc>
435261-313-R-J1-PDC tumor spheroid viability

>  <quantity-kind>
viability, T/C

>  <number>
35.1

$$$$

###

System: 435261-313-R-J1-PDC tumor spheroid viability
assay-name: Anticancer human tumor 435261-313-R-J1-PDC cell line growth inhibition [PI3K];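 further: spheroids exposed to compounds for 7 days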
details: second compound 0.1 µM; first compound 3.16 µM; stronger effect = lower value; spheroids with HUVEC and MSC
quantity-kind: viability, T/C (%)

>  <molecule>
CC1(C)CCC(CN2CCN(c3ccc(C(=O)NS(=O)(=O)c4ccc(NCC5CCOCC5)c([N+](=O)[O-])c4)c(Oc4cnc5[nH]ccc5c4)c3)CC2)=C(c2ccc(Cl)cc2)C1 + CC(Nc1ccc2c(c1)OCCn1cc(N3C(=O)OCC3C(F)F)nc1-2)C(N)=O

>  <target-desc>
435261-313-R-J1-PDC tumor spheroid viability

>  <quantity-kind>
viability, T/C

>  <number>
33.6

$$$$
>  <molecule>
Cn1ncc(Cl)c1-c1cc(C(=O)NC(CN)Cc2cccc(F)c2)sc1Cl (stereo not drawn) + Cc1nc(NC(=O)N2CCCC2C(N)=O)sc1-c1ccnc(C(C)(C)C(F)(F)F)c1

>  <target-desc>
435261-313-R-J1-PDC tumor spheroid viability

>  <quantity-kind>
viability, T/C

>  <number>
21.7

$$$$
>  <molecule>
C[C@@H](NC(=O)c1ncnc(N)c1Cl)c1ncc(C(=O)Nc2cc(C(F)(F)F)c(Cl)cn2)s1 + CC(Nc1ccc2c(c1)OCCn1cc(N3C(=O)OCC3C(F)F)nc1-2)C(N)=O

>  <target-desc>
435261-313-R-J1-PDC tumor spheroid viability

>  <quantity-kind>
viability, T/C

>  <number>
58.6

$$$$
